# Tested on: Pseudomonas aerugionsa ATCC 10145
# measurement.protocol: minimal inhibitory concentration, two-fold agar dilution
# Type: cell-based
# condition.info: ATCC10145, Muller-Hinton agar, 37° C., 20 hours
# Experimental: These NIC values were taken by employing a two-fold dilution method: that is, two-fold serial dilutions of each of the test compounds were made and dispersed in a Muller-Hinton agar medium; 2 μl of the standard test strain which had the 10^7 CFU (Colony Forming Unit) per ml was inoculated on the medium; and these were incubated at 37° C. for 20 hours.
assay.endpoint: MIC (µg/mL)

compound | number
C[C@@H](O/N=C(\C(=O)NC1C(=O)N2C(C(=O)[O-])=C(CSc3nc(N)cc(N)[n+]3C)CS[C@H]12)c1csc(N)n1)C(=O)O (stereo partly drawn) [I-R-2] | 2
C[C@H](O/N=C(\C(=O)NC1C(=O)N2C(C(=O)[O-])=C(CSc3nc(N)cc(N)[n+]3N)CS[C@H]12)c1csc(N)n1)C(=O)O (stereo partly drawn) [I-S-1] | 1
Cc1c(N)nc(SCC2=C(C(=O)[O-])N3C(=O)C(NC(=O)/C(=N\O[C@@H](C)C(=O)O)c4csc(N)n4)C3SC2)[n+](C)c1N (stereo partly drawn) [I-S-6] | 2
CC[n+]1c(N)cc(N)nc1SCC1=C(C(=O)[O-])N2C(=O)C(NC(=O)/C(=N\O[C@@H](C)C(=O)O)c3csc(N)n3)[C@H]2SC1 (stereo partly drawn) [I-S-3] | 2
Cc1c(N)nc(SCC2=C(C(=O)[O-])N3C(=O)C(NC(=O)/C(=N\O[C@H](C)C(=O)O)c4csc(N)n4)[C@H]3SC2)[n+](N)c1N (stereo partly drawn) [I-R-7] | 2
Cc1c(N)nc(SCC2=C(C(=O)[O-])N3C(=O)C(NC(=O)/C(=N\O[C@@H](C)C(=O)O)c4csc(N)n4)[C@H]3SC2)[n+](N)c1N (stereo partly drawn) [I-S-7] | 1

---

Quick reference: MIC of the listed items.
# Tested on: Bacillus cereus ATCC 11778
# measurement.protocol: minimal inhibitory concentration, two-fold agar dilution
# Assay type: cell-based
# condition.info: Bacillus cereus, ATCC11778, 20 h

compound | MIC
C[C@@H](O/N=C(\C(=O)NC1C(=O)N2C(C(=O)[O-])=C(CSc3nc(N)cc(N)[n+]3-c3ccccc3)CSC12)c1csc(N)n1)C(=O)O (some centres unmarked) | 64 µg/mL
Cc1c(N)nc(SCC2=C(C(=O)[O-])N3C(=O)C(NC(=O)/C(=N\O[C@@H](C)C(=O)O)c4csc(N)n4)C3SC2)[n+](C)c1N (some centres unmarked) | 64 µg/mL
C[C@H](O/N=C(\C(=O)NC1C(=O)N2C(C(=O)[O-])=C(CSc3nc(N)cc(N)[n+]3C)CS[C@H]12)c1csc(N)n1)C(=O)O (some centres unmarked) | 32 µg/mL
CCC[n+]1c(N)cc(N)nc1SCC1=C(C(=O)[O-])N2C(=O)C(NC(=O)/C(=N\O[C@@H](C)C(=O)O)c3csc(N)n3)[C@H]2SC1 (some centres unmarked) | 32 µg/mL
C[C@@H](O/N=C(\C(=O)NC1C(=O)N2C(C(=O)[O-])=C(CSc3nc(N)cc(N)[n+]3C)CS[C@H]12)c1csc(N)n1)C(=O)O (some centres unmarked) | > 128 µg/mL
CC[n+]1c(N)cc(N)nc1SCC1=C(C(=O)[O-])N2C(=O)C(NC(=O)/C(=N\O[C@@H](C)C(=O)O)c3csc(N)n3)[C@H]2SC1 (some centres unmarked) | 32 µg/mL
Cc1c(N)nc(SCC2=C(C(=O)[O-])N3C(=O)C(NC(=O)/C(=N\O[C@H](C)C(=O)O)c4csc(N)n4)[C@H]3SC2)[n+](C)c1N (some centres unmarked) | 128 µg/mL
C[C@H](O/N=C(\C(=O)NC1C(=O)N2C(C(=O)[O-])=C(CSc3nc(N)cc(N)[n+]3-c3ccccc3)CS[C@H]12)c1csc(N)n1)C(=O)O (some centres unmarked) | 32 µg/mL
CC[n+]1c(N)cc(N)nc1SCC1=C(C(=O)[O-])N2C(=O)C(NC(=O)/C(=N\O[C@H](C)C(=O)O)c3csc(N)n3)[C@H]2SC1 (some centres unmarked) | 128 µg/mL
C[C@@H](O/N=C(\C(=O)NC1C(=O)N2C(C(=O)[O-])=C(CSc3nc(N)cc(N)[n+]3N)CS[C@H]12)c1csc(N)n1)C(=O)O (some centres unmarked) | 128 µg/mL
Cc1c(N)nc(SCC2=C(C(=O)[O-])N3C(=O)C(NC(=O)/C(=N\O[C@H](C)C(=O)O)c4csc(N)n4)[C@H]3SC2)[n+](N)c1N (some centres unmarked) | 128 µg/mL
C[C@H](O/N=C(\C(=O)NC1C(=O)N2C(C(=O)[O-])=C(CSc3nc(N)cc(N)[n+]3N)CS[C@H]12)c1csc(N)n1)C(=O)O (some centres unmarked) | 32 µg/mL
CCC[n+]1c(N)cc(N)nc1SCC1=C(C(=O)[O-])N2C(=O)C(NC(=O)/C(=N\O[C@H](C)C(=O)O)c3csc(N)n3)[C@H]2SC1 (some centres unmarked) | 64 µg/mL
CC(C)(O/N=C(\C(=O)N[C@@H]1C(=O)N2C(C(=O)[O-])=C(C[n+]3ccccc3)CS[C@H]12)c1csc(N)n1)C(=O)O [CTZ, Ceftazidime, reference compound] | 128 µg/mL

---

Quick reference: half-life of the listed items.
# measurement.protocol: in vivo absorbency test (plasma concentration, pharmacokinetic parameters)
# Set-up: species or system SD rats (male)
# condition.info: rat, plasma, iv, 20 mg/kg, Two-Compartment Model, rats, read-out: T1/1(β)
# Procedure: In addition to the in vitro tests described above, in vivo absorbency tests for the two selected compounds of formulas (I-S-1) and (I-R-1), along with Ceftadizime, were carried out by administering intravenously, in a dose of 20 mg/kg, each of these two compounds into SD rats (male) weighing 220 to 340 g; […], which were analyzed by employing the bio-assay or agar well method. About 10 to 15 rats were used for each of the compounds. Notes: (1) Two-Compartment Model […]

molecule | unit.abbreviation | half-life
C[C@H](O/N=C(\C(=O)NC1C(=O)N2C(C(=O)[O-])=C(CSc3nc(N)cc(N)[n+]3N)CS[C@H]12)c1csc(N)n1)C(=O)O (some centres unmarked) | min | 37.5
C[C@@H](O/N=C(\C(=O)NC1C(=O)N2C(C(=O)[O-])=C(CSc3nc(N)cc(N)[n+]3N)CS[C@H]12)c1csc(N)n1)C(=O)O (some centres unmarked) | min | 30

---

# measurement.protocol: in vivo absorbency test (plasma concentration, pharmacokinetic parameters)
# Design: species or system SD rats (male)
# condition.info: rat, plasma; 10 min; rats, iv, 20 mg/kg; read-out: Plasma Conc.
Quick reference: concentration at 10 min of the listed items.

compound | concentration at 10 min
C[C@H](O/N=C(\C(=O)NC1C(=O)N2C(C(=O)[O-])=C(CSc3nc(N)cc(N)[n+]3N)CS[C@H]12)c1csc(N)n1)C(=O)O (some centres unmarked) [I-S-1] | 57.3 µg/mL
C[C@@H](O/N=C(\C(=O)NC1C(=O)N2C(C(=O)[O-])=C(CSc3nc(N)cc(N)[n+]3N)CS[C@H]12)c1csc(N)n1)C(=O)O (some centres unmarked) [I-R-1] | 57 µg/mL

---

Quick reference: concentration at 2.5 min of the listed items.
# measurement.protocol: in vivo absorbency test (plasma concentration, pharmacokinetic parameters)
# Set-up: species or system SD rats (male)
# condition.info: rat, plasma; 2.5 min; rats, iv, 20 mg/kg; read-out: Plasma Conc.

molecule | concentration at 2.5 min / µg/mL
C[C@@H](O/N=C(\C(=O)NC1C(=O)N2C(C(=O)[O-])=C(CSc3nc(N)cc(N)[n+]3N)CS[C@H]12)c1csc(N)n1)C(=O)O (some centres unmarked) | 102
C[C@H](O/N=C(\C(=O)NC1C(=O)N2C(C(=O)[O-])=C(CSc3nc(N)cc(N)[n+]3N)CS[C@H]12)c1csc(N)n1)C(=O)O (some centres unmarked) | 102

---

# measurement.protocol: acute toxicity test, intravenous
# condition.info: mouse, in vivo, ICR mice, observed for 14 days

compound | LD50 at 336 h
C[C@H](O/N=C(\C(=O)NC1C(=O)N2C(C(=O)[O-])=C(CSc3nc(N)cc(N)[n+]3C)CS[C@H]12)c1csc(N)n1)C(=O)O (some centres unmarked) [I-S-2] | > 3000 mg/kg
CCC[n+]1c(N)cc(N)nc1SCC1=C(C(=O)[O-])N2C(=O)C(NC(=O)/C(=N\O[C@H](C)C(=O)O)c3csc(N)n3)[C@H]2SC1 (some centres unmarked) [I-R-4] | > 3000 mg/kg
Cc1c(N)nc(SCC2=C(C(=O)[O-])N3C(=O)C(NC(=O)/C(=N\O[C@H](C)C(=O)O)c4csc(N)n4)[C@H]3SC2)[n+](N)c1N (some centres unmarked) [I-R-7] | > 5000 mg/kg
Cc1c(N)nc(SCC2=C(C(=O)[O-])N3C(=O)C(NC(=O)/C(=N\O[C@@H](C)C(=O)O)c4csc(N)n4)[C@H]3SC2)[n+](N)c1N (some centres unmarked) [I-S-7] | > 5000 mg/kg
C[C@H](O/N=C(\C(=O)NC1C(=O)N2C(C(=O)[O-])=C(CSc3nc(N)cc(N)[n+]3N)CS[C@H]12)c1csc(N)n1)C(=O)O (some centres unmarked) [I-S-1] | > 5000 mg/kg
CCC[n+]1c(N)cc(N)nc1SCC1=C(C(=O)[O-])N2C(=O)C(NC(=O)/C(=N\O[C@@H](C)C(=O)O)c3csc(N)n3)[C@H]2SC1 (some centres unmarked) [I-S-4] | > 3000 mg/kg
Cc1c(N)nc(SCC2=C(C(=O)[O-])N3C(=O)C(NC(=O)/C(=N\O[C@H](C)C(=O)O)c4csc(N)n4)[C@H]3SC2)[n+](C)c1N (some centres unmarked) [I-R-6] | > 3000 mg/kg
C[C@@H](O/N=C(\C(=O)NC1C(=O)N2C(C(=O)[O-])=C(CSc3nc(N)cc(N)[n+]3N)CS[C@H]12)c1csc(N)n1)C(=O)O (some centres unmarked) [I-R-1] | > 5000 mg/kg
C[C@@H](O/N=C(\C(=O)NC1C(=O)N2C(C(=O)[O-])=C(CSc3nc(N)cc(N)[n+]3-c3ccccc3)CSC12)c1csc(N)n1)C(=O)O (some centres unmarked) [I-R-5] | > 2000 mg/kg
CC[n+]1c(N)cc(N)nc1SCC1=C(C(=O)[O-])N2C(=O)C(NC(=O)/C(=N\O[C@@H](C)C(=O)O)c3csc(N)n3)[C@H]2SC1 (some centres unmarked) [I-S-3] | > 3000 mg/kg
C[C@H](O/N=C(\C(=O)NC1C(=O)N2C(C(=O)[O-])=C(CSc3nc(N)cc(N)[n+]3-c3ccccc3)CS[C@H]12)c1csc(N)n1)C(=O)O (some centres unmarked) [I-S-5] | > 2000 mg/kg
CC[n+]1c(N)cc(N)nc1SCC1=C(C(=O)[O-])N2C(=O)C(NC(=O)/C(=N\O[C@H](C)C(=O)O)c3csc(N)n3)[C@H]2SC1 (some centres unmarked) [I-R-3] | > 3000 mg/kg
Cc1c(N)nc(SCC2=C(C(=O)[O-])N3C(=O)C(NC(=O)/C(=N\O[C@@H](C)C(=O)O)c4csc(N)n4)C3SC2)[n+](C)c1N (some centres unmarked) [I-S-6] | > 3000 mg/kg
C[C@@H](O/N=C(\C(=O)NC1C(=O)N2C(C(=O)[O-])=C(CSc3nc(N)cc(N)[n+]3C)CS[C@H]12)c1csc(N)n1)C(=O)O (some centres unmarked) [I-R-2] | > 3000 mg/kg

This collection of values is drawn from patent US5462935A.
